- system: T1, human VEGFA165 (human, UniProt P15692-4 27-191)
- T1 construct: Bought protein from two suppliers, treated as one molecule; the supplier is named under assay; also called antigen VEGFA
- T1 sequence (P15692 other isoform, or with tags, fused parts or gaps limits assumed): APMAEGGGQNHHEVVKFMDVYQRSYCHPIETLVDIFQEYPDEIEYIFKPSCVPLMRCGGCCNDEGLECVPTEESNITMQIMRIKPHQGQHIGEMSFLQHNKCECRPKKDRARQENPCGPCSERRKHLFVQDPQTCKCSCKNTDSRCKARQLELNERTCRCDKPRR
- measurementDescription: ELISA, coated human VEGFA165, anti-His detection
reportedEndpoint: EC50 (pM)
Respond numerically; units are pM and should not be typed.

// solved cases for EC50 follow
>  <binder>
2V43-9GS (VHH, Tandem bivalent nanobody) QLQLVESGGGSVQPGGSLRLSCEVSGRTFTSYTMGWFRQAPGKEREFVVAISKGGYKYDSVSLEARFTISKDNTKNTVYLQMNSLKPEDTAVYYCAGTRAYGSSRLRLANTYEYWGQGTQVTVSSGGGGSGGGSQLQLVESGGGSVQPGGSLRLSCEVSGRTFTSYTMGWFRQAPGKEREFVVAISKGGYKYDSVSLEARFTISKDNTKNTVYLQMNSLKPEDTAVYYCAGTRAYGSSRLRLANTYEYWGQGTQVTVSS

>  <EC50, pM>
170

$$$$
>  <binder>
V15 (VHH, Monovalent nanobody; tag not described here, the ELISA detects a His tag) VHH: QLQLVESGGGSVQPGGSLRLSCEVSGRTFASYTMGWFRQAPGKEREFVVAISKGGYKYDSVSLEARFTISKDNTKNTVYLQMNSLKPEDTAVYYCAGTRAYGSSRLRLAETYEYWGQGTQVTVSS

>  <EC50, pM>
1000

$$$$

// below: EC50 requested for another binder
Incoming: Look at this binder and give its reported EC50. V31 (VHH, Monovalent nanobody; tag not described here, the ELISA detects a His tag) VHH: QLQLVESGGGSVQPGGSLRLSCEVSGRTFASYTMGWFRQAPGKEREFVVAISKGGYKYDAVSLEARFTISKDNTKNTVYLQMNSLKPEDTAVYYCAGTRAYGSSRLRLAKTYEYWGQGTQVTVSS
Outgoing: 770
